Entry source: ChEMBL document CHEMBL4837263

Biological target: Mitogen-activated protein kinase 14 (Homo sapiens)
Sequence (Q16539 whole entry): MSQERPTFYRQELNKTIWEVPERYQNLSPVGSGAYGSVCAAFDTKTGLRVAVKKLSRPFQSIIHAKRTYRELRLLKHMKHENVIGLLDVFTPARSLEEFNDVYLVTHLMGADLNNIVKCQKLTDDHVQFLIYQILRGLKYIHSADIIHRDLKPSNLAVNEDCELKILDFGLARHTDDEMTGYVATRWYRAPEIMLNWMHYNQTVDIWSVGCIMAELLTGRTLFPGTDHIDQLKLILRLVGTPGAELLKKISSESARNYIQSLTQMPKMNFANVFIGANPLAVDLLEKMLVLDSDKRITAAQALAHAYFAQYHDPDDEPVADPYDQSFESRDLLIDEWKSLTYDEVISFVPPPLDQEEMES
Assay: Inhibition of p38 alpha (unknown origin) using biotinylated FL-ATF-2 as substrate measured after 22 mins by homogeneous time-resolved fluorescence analysis
measurementName: pIC50
Answers are plain numbers, as −log10 of the molar value.

{"smilesText": "[2H]C([2H])([2H])N1CC[C@H](NC(=O)c2cc(-n3ncc4cc(Nc5ccccc5Cl)c(F)cc43)cs2)C1", "measuredNumber": 6.52}
{"smilesText": "O=C(NC1CC1)c1cc(-n2ncc3cc(Nc4ccccc4Cl)c(F)cc32)cs1", "measuredNumber": 7.85}
{"smilesText": "O=C(NCC(F)F)c1cc(-n2ncc3cc(Nc4ccccc4Cl)c(F)cc32)cs1", "measuredNumber": 7.34}

Answer for every listed entry: what is its pIC50? The entries follow.
1. CC(C)NC(=O)c1cc(-n2ncc3cc(Nc4ccccc4Cl)c(F)cc32)cs1
2. [2H]C([2H])([2H])N1CC[C@H](NC(=O)c2cc(-n3ncc4cc(Nc5ccccc5Cl)ccc43)cs2)C1
3. O=C(NC1COC1)c1cc(-n2ncc3cc(Nc4ccccc4Cl)ncc32)cs1
4. Cc1nc2c(cnn2-c2csc(C(=O)NC3COC3)c2)cc1Nc1ccc(F)cc1Cl
5. CNC(=O)c1cc(-n2ncc3cc(Nc4ccccc4Cl)cnc32)cs1

Output:
1. 6.91
2. 6.65
3. 7.07
4. 6.31
5. 6.32
